Entries below carry reported AC50 on Cytochrome P450 3A4 (Homo sapiens).
Sequence (P08684 whole entry): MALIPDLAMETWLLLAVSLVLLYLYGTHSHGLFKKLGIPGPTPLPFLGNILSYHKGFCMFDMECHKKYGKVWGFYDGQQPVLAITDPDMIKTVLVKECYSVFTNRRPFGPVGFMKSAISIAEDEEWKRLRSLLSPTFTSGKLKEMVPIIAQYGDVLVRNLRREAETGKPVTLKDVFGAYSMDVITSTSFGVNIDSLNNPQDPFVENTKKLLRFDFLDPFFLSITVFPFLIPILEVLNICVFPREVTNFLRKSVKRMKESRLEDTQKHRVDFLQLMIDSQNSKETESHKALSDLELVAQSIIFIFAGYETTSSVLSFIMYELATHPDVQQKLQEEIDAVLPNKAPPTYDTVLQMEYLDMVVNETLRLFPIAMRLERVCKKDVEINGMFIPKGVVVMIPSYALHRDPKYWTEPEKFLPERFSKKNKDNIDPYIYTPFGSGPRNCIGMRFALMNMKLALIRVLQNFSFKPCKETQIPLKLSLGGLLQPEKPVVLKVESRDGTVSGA

[
  {
    "compound": "COc1ccccc1NC(=O)Nc1nc(-c2cccnc2)nc2ccccc12",
    "testSystem": "Cytochrome P450 3A4 (Homo sapiens)",
    "AC50": "0.631 µM (inconclusive)"
  },
  {
    "compound": "Cc1cc(C(=O)CSC(=S)SC(C)(C)C)ccc1Cl",
    "testSystem": "Cytochrome P450 3A4 (Homo sapiens)",
    "AC50": "3.16 µM (inconclusive)"
  },
  {
    "compound": "CC(=O)N1CCC2(CCCN(c3ccccc3)C2)CC1",
    "testSystem": "Cytochrome P450 3A4 (Homo sapiens)",
    "AC50": "20 µM (inconclusive)"
  },
  {
    "compound": "CC(=O)OC[C@H]1O[C@@H](O/N=C(\\C)CCN2CCCc3nc(C)c(C)cc32)[C@H](OC(C)=O)[C@@H](OC(C)=O)[C@H]1OC(C)=O",
    "testSystem": "Cytochrome P450 3A4 (Homo sapiens)",
    "AC50": "3.98 µM (inconclusive)"
  },
  {
    "compound": "O=C1CC(N2CCN(C(c3ccccc3)c3ccccc3)CC2)C(=O)N1Cc1ccc(N2CCCC2=O)cc1 (configuration not stated)",
    "testSystem": "Cytochrome P450 3A4 (Homo sapiens)",
    "AC50": "22.4 µM (inconclusive)"
  },
  {
    "compound": "CC(C)(C)c1cc2cccnc2n1Cc1ccccc1",
    "testSystem": "Cytochrome P450 3A4 (Homo sapiens)",
    "AC50": "15.8 µM (inconclusive)"
  },
  {
    "compound": "CCCCCOc1ccc(OC(=O)c2ccncc2)cc1",
    "testSystem": "Cytochrome P450 3A4 (Homo sapiens)",
    "AC50": "25.1 µM (inconclusive)"
  }
]
